# STUDY TARGET: SALL4 recruitment to CRBN (Homo sapiens, UniProt Q96SW2)
# Construct: Full size proteins were fused for each of the target proteins tested, except in the case of IKZF1 where isoform 7 was used
# Sequence (Q96SW2 whole entry, the tested form may be a part, canonical isoform): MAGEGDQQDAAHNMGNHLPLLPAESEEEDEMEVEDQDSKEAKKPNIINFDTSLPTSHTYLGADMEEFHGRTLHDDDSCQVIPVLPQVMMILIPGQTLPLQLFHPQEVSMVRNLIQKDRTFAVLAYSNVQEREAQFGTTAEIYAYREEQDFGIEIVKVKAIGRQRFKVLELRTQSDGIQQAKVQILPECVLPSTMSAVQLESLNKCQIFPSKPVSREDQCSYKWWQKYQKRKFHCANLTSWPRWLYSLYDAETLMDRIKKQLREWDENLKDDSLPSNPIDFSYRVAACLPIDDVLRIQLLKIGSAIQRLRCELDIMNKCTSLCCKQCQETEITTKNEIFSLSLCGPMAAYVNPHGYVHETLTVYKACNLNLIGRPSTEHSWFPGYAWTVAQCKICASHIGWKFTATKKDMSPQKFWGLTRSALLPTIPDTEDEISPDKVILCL
# Sequence (Q9UJQ4 whole entry partner, the tested form may be a part, canonical isoform): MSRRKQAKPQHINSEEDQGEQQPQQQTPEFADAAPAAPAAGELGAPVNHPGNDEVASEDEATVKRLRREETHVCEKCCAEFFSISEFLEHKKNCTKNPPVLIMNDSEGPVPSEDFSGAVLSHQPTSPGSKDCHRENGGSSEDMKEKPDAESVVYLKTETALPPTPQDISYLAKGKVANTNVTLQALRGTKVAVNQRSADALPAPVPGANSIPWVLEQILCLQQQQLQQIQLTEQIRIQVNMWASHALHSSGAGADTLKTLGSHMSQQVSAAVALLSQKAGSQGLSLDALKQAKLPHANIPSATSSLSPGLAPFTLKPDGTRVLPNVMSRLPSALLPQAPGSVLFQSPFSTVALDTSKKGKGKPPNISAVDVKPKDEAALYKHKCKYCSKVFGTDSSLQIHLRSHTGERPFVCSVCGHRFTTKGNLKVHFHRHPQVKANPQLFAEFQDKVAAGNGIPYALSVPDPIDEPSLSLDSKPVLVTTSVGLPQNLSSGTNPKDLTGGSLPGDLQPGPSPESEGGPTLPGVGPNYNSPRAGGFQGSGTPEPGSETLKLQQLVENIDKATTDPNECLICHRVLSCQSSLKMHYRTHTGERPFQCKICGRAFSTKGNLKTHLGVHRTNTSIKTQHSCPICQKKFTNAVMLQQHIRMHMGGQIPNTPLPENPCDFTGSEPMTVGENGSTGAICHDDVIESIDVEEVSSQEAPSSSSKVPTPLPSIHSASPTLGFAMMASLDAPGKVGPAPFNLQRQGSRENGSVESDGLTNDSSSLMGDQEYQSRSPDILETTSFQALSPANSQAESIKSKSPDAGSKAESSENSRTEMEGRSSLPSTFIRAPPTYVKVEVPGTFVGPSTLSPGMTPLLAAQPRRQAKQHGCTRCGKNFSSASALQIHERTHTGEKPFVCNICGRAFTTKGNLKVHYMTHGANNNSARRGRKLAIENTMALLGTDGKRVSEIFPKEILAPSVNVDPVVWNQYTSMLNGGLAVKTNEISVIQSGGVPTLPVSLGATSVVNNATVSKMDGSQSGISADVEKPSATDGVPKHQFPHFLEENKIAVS
# Sequence (Q16531 whole entry partner, the tested form may be a part, canonical isoform): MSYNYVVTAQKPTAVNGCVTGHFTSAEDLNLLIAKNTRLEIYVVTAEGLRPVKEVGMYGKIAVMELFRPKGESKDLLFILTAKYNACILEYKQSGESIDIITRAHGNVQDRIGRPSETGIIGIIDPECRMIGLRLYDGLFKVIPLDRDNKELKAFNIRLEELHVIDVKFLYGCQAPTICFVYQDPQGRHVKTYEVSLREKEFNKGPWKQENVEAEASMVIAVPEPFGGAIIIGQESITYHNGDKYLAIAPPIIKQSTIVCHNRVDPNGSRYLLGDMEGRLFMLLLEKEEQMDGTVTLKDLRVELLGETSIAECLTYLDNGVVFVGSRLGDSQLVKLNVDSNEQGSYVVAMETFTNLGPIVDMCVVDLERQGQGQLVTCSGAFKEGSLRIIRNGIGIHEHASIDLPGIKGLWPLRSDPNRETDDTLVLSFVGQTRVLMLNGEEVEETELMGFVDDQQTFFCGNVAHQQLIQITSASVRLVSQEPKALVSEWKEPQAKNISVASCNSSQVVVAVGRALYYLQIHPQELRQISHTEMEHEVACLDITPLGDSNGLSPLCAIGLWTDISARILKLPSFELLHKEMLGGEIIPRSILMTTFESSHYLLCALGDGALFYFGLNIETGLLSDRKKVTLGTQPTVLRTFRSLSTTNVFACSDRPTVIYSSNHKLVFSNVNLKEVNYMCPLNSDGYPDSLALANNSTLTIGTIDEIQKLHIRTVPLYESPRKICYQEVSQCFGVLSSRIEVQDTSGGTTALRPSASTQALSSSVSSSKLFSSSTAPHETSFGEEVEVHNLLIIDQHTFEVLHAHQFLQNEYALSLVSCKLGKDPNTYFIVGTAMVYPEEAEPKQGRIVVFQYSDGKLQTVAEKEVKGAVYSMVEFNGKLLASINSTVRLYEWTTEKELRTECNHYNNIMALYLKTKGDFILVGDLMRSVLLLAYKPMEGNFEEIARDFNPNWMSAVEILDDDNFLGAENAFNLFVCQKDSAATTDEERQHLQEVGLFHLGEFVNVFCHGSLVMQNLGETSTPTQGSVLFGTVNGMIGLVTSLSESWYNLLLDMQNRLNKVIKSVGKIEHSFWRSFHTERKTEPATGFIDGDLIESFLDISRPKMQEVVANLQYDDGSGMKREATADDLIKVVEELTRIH
# ASSAY COMMENT: Recruitment Assay (MAPPIT-like): SALL4 recruitment to CRBN
# CONDITION INFO: HEK293T cells; pSEL-SALL4+pMG1-CRBN; luciferase 24 hours after treatment; read-out: EC50_SALL4
Hi! Just check whether EC50 is below 900 nM. Below gives 1.0, equal or above gives 0.0.

| COMPOUND | CLASS ASSIGNMENT |
| --- | --- |
| CN(C)c1ccc2c(c1)CN(C1CCC(=O)NC1=O)C2=O (stereo not drawn) | 1.0 |
| O=C1CCC(N2Cc3c(ccc4c3OCO4)C2=O)C(=O)N1 (stereo not drawn) | 1.0 |
| CCOC(=O)NCCNc1ccc2c(c1)CN(C1CCC(=O)NC1=O)C2=O (stereo not drawn) | 1.0 |
| O=C1CCC(N2Cc3ccc(NCC(=O)NC4CCOC4)cc3C2=O)C(=O)N1 (stereo not drawn) | 0.0 |
| O=C(CNc1ccc2c(c1)CN(C1CCC(=O)NC1=O)C2=O)NCc1ccccc1 (stereo not drawn) | 1.0 |
| O=C1CCC(N2Cc3cccc(F)c3C2=O)C(=O)N1 (stereo not drawn) | 1.0 |
| N#Cc1ccc(Nc2ccc3c(c2)CN(C2CCC(=O)NC2=O)C3=O)nn1 (stereo not drawn) | 1.0 |
| O=C1CCC(N2C(=O)c3ccccc3C2O)C(=O)N1 (stereo not drawn) | 1.0 |
| Cc1cccc2nnn(C3CCC(=O)NC3=O)c(=O)c12 (stereo not drawn) | 1.0 |
| CC(Nc1ccc2c(c1)C(=O)N(C1CCC(=O)NC1=O)C2)C(=O)O (stereo not drawn) | 0.0 |
| Nc1cccc2nnn(C3CCC(=O)NC3=O)c(=O)c12 (stereo not drawn) | 1.0 |
| O=C(O)CNc1cccc2c1C(=O)N(C1CCC(=O)NC1=O)C2 (stereo not drawn) | 0.0 |
| O=C1CCC(N2Cc3cc(Nc4ncc5c(n4)COC5)ccc3C2=O)C(=O)N1 (stereo not drawn) | 1.0 |
| O=C1CCC(N2C(=O)C3=C(C2=O)c2ccccc2CC3)C(=O)N1 (stereo not drawn) | 0.0 |
| CN(C)CC(=O)Nc1cccc2c1CN(C1CCC(=O)NC1=O)C2=O (stereo not drawn) | 0.0 |
| O=C1CCC(N2Cc3cc(Nc4ncc5[nH]cnc5n4)ccc3C2=O)C(=O)N1 (stereo not drawn) | 1.0 |
| O=C(O)CNc1ccc2c(c1)CN(C1CCC(=O)NC1=O)C2=O (stereo not drawn) | 1.0 |
| Cc1cccc2c1CN(C1CCC(=O)NC1=O)C2=O (stereo not drawn) | 1.0 |
| O=C1CCC(N2Cc3c(Cl)cccc3C2=O)C(=O)N1 (stereo not drawn) | 1.0 |
| CC(=O)Nc1ccc2c(c1)CN(C1CCC(=O)NC1=O)C2=O (stereo not drawn) | 1.0 |
| O=C1CCC(N2Cc3c(NC(=O)Nc4cccc5c4CN(C4CCC(=O)NC4=O)C5=O)cccc3C2=O)C(=O)N1 (stereo not drawn) | 0.0 |
| CC1c2ccccc2C(=O)N1C1CCC(=O)NC1=O (stereo not drawn) | 1.0 |
| CC(=O)NCCNc1ccc2c(c1)CN(C1CCC(=O)NC1=O)C2=O (stereo not drawn) | 0.0 |
| N#Cc1ccc2c(c1)CN(C1CCC(=O)NC1=O)C2=O (stereo not drawn) | 1.0 |
| Cc1cccc2c(=O)n(C3CCC(=O)NC3=O)nnc12 (stereo not drawn) | 1.0 |
| N#Cc1cccc2c1CN(C1CCC(=O)NC1=O)C2=O (stereo not drawn) | 1.0 |
| Cc1ccc2c(c1)CN(C1CCC(=O)NC1=O)C2=O (stereo not drawn) | 1.0 |
| O=C1CCC(N2Cc3ccccc3C2)C(=O)N1 (stereo not drawn) | 0.0 |
